- Assayed System: human OX2R (Homo sapiens, UniProt O43614)
- Construct: expressed in transfected cells; host or cells: CHO (Chinese hamster ovary) cells, line CHOOX2R, co-expressing NFAT-luciferase
- Sequence (O43614 whole entry): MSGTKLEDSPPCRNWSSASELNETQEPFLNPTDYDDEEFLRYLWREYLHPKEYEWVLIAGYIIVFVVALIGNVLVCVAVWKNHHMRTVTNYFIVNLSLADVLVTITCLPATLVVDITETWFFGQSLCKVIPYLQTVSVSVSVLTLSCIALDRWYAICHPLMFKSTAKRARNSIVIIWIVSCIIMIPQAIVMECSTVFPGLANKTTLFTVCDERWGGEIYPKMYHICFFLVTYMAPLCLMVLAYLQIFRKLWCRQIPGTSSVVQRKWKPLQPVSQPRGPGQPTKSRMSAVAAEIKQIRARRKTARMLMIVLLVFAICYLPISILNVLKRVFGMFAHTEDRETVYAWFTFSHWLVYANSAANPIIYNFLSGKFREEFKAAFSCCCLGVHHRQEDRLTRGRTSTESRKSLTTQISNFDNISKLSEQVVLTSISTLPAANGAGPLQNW
- Method: Agonist activity against OX2R: intracellular calcium (Fura-2AM, FDSS7000) in CHOOX2R cells
- Type: cell-based
- Experimental Conditions: test compound 1.0 μM; relative to orexin-A as full agonist (100%)
Test Readout: Response (%) OX2R

Below, each entry is followed by its recorded Response (%) OX2R result.
Prompt: Please look up its Response (%) OX2R: COc1ccc(-c2cccc(C(=O)N(C)C)c2)cc1S(=O)(=O)Nc1cccc(N2CCN(C(=O)c3cccc(C)c3)C2)c1
Response: 77

Prompt: I would be grateful if you could share the reported Response (%) OX2R for COc1ccc(-c2cccc(C(=O)N(C)C)c2)cc1S(=O)(=O)Nc1cccc(N2CCN(c3cccc(N(C)C)c3)C2=O)c1 .
Response: 99

Prompt: Response (%) OX2R lookup needed for COc1ccc(-c2cccc(C(=O)N(C)C)c2)cc1S(=O)(=O)Nc1ccccc1NC(=O)Nc1cccc(N(C)C)c1 , thanks.
Response: 47

(a) COc1ccc(C(=O)NCC(C)(C)CN(C)C)cc1S(=O)(=O)Nc1cccc(NC(=O)Nc2cccc(N(C)C)c2)c1
(b) COc1ccc(-c2cccc(C(=O)N(C)C)c2)cc1S(=O)(=O)Nc1cccc(N2CCCN(c3ccc(N(C)C)cc3)C2=O)c1
(c) COc1ccc(-c2cccc(C(=O)N(C)C)c2)cc1S(=O)(=O)Nc1cccc(N)c1
Prompt: Sequence the entries by Response (%) OX2R, beginning with the highest number. State the ranking by listing the labels in the requested order.
Response: b, c, a
(b: 66%, c: 14%, a: 9%)

(P) COc1ccc(-c2cccc(C(=O)N(C)C)c2)cc1S(=O)(=O)Nc1cccc(N2CCN(c3ccccc3N(C)C)C2=O)c1
(Q) COc1ccc(-c2cccc(C(=O)N(C)C)c2)cc1S(=O)(=O)Nc1cccc(N=Nc2ccc(O)cc2NC(=O)OC(C)(C)C)c1
(R) COc1ccc(C(=O)NCCCNC(=O)OC(C)(C)C)cc1S(=O)(=O)Nc1cccc(NC(=O)Nc2ccccc2N(C)C)c1
(S) COc1ccc(C(=O)Nc2cccc(N(C)C)c2)cc1S(=O)(=O)Nc1cccc(NC(=O)Nc2cccc(N(C)C)c2)c1
Prompt: Provide the items ranked by increasing Response (%) OX2R. Please write the labels in the order that was asked for.
Response: S, Q, R, P

(I) COc1ccc(-c2cccc(C(=O)N(C)C)c2)cc1S(=O)(=O)Nc1cccc(NC(=O)Nc2cccc(N(C)C)c2)n1
(II) COc1ccc(-c2cccc(C(=O)N(C)C)c2)cc1S(=O)(=O)Nc1cccc(NS(=O)(=O)c2cccc(F)c2)c1
(III) CN(C)C(=O)c1cccc(-c2ccc(Cl)c(S(=O)(=O)Nc3cccc(NC(=O)Nc4cccc(N(C)C)c4)c3)c2)c1
Prompt: Sort the compounds on Response (%) OX2R; start with the lowest figure. Quick reminder: the answer is the labels in the order asked.
Response: II, III, I

(P) COc1ccc(-c2cccc(C(=O)N(C)C)c2)cc1S(=O)(=O)Nc1cccc(N2CCCCN(c3cccc(N(C)C)c3)C2=O)c1
(Q) COc1ccc(C(=O)NCCNC(=O)OC(C)(C)C)cc1S(=O)(=O)Nc1cccc(NC(=O)Nc2cccc(N(C)C)c2)c1
Prompt: Would you mind telling me which has the lower recorded Response (%) OX2R between P and Q ? Record your answer as the label of the chosen record.
Response: Q
(Q: 32%, P: 97%)

(A) Cc1ccc(-c2cccc(C(=O)N(C)C)c2)cc1S(=O)(=O)Nc1cccc(NC(=O)Nc2cccc(N(C)C)c2)c1
(B) COc1ccc(C(=O)NCCCNC(=O)OC(C)(C)C)cc1S(=O)(=O)Nc1cccc(NC(=O)Nc2cccc(N(C)C)c2)c1
Prompt: Quick check, higher Response (%) OX2R between A and B ? // respond with label for picked entry
Response: B
(B: 79%, A: 16%)

* * *

- Assayed System: human OX1R (Homo sapiens, UniProt O43613)
- Construct: expressed in transfected cells; host or cells: CHO (Chinese hamster ovary) cells, line CHOOX1R, co-expressing NFAT-luciferase
- Method: Agonist activity against OX1R: intracellular calcium (Fura-2AM, FDSS7000) in CHOOX1R cells
- Format: cell-based
- Experimental Conditions: 1.0 μM test compound; relative to orexin-A as full agonist (100%)
Test Readout: Response (%) OX1R

(I) COc1ccc(CNc2cccc(NS(=O)(=O)c3cc(-c4cccc(C(=O)N(C)C)c4)ccc3OC)c2)cc1 [Example 22]
(II) COc1ccc(-c2cccc(C(=O)N(C)C)c2)cc1S(=O)(=O)Nc1cccc(NC(=O)c2ccc(N(C)C)cc2)c1 [Example 8]
Prompt: Between the entries labelled I and II , which has a larger Response (%) OX1R value on record? Let me know the label of the one you choose.
Response: I
(I: 47%, II: 8%)

(A) COc1ccc(-c2cccc(C(=O)N(C)C)c2)cc1S(=O)(=O)Nc1cccc(NC(=O)Nc2ccccc2C)c1 [Example 51]
(B) COc1ccc(-c2cccc(C(=O)N(C)C)c2)cc1S(=O)(=O)Nc1cccc(NC(=O)c2ccc3c(c2)OCO3)c1 [Example 5]
Prompt: Which one would you say has the larger Response (%) OX1R value: A , or B ? State your choice using its label.
Response: A

* * *

- Assayed System: human OX1R (Homo sapiens, UniProt O43613)
- Construct: expressed in transfected cells; host or cells: CHO (Chinese hamster ovary) cells, line CHOOX1R, co-expressing NFAT-luciferase
- Sequence (O43613 1-425): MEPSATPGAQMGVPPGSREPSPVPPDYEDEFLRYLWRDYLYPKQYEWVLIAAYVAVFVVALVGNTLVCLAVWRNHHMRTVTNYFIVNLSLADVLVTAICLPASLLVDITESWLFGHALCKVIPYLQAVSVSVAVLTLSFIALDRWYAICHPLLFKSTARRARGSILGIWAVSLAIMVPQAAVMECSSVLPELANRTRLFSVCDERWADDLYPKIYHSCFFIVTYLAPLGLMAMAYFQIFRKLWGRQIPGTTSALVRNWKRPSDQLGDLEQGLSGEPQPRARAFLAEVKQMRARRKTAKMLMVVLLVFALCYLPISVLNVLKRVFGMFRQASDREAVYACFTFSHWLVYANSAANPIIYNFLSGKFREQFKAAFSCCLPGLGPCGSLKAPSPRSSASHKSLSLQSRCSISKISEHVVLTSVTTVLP
- Method: Agonist activity against OX1R: intracellular calcium (Fura-2AM, FDSS7000) in CHOOX1R cells
- Type: cell-based
- Experimental Conditions: 0.1 μM test compound; relative to orexin-A as full agonist (100%)
Test Readout: Response (%) OX1R

Examples with their reported Response (%) OX1R follow.
Prompt: Would you kindly share the measured Response (%) OX1R for COc1ccc(-c2cccc(C(=O)N(C)C)c2)cc1S(=O)(=O)Nc1cccc(NC(=O)Nc2cccc(NC(=O)OC(C)(C)C)c2)c1 [Example 62] ?
Response: 9%

Prompt: Name the recorded Response (%) OX1R for COc1ccc(-c2cccc(C(=O)N(C)C)c2)cc1S(=O)(=O)Nc1cccc(NC(=O)Nc2cccc(C(=O)O)c2)c1 [Example 48] .
Response: <5%

Prompt: So what does the record say about Response (%) OX1R for COc1ccc(NC(=O)Nc2cccc(NS(=O)(=O)c3cc(-c4cccc(C(=O)N(C)C)c4)ccc3OC)c2)cc1 [Example 53] ?
Response: <8%

Let us examine a further case.
Prompt: GET /values?readout=Response (%) OX1R&item= COc1ccc(-c2cccc(C(=O)N(C)C)c2)cc1S(=O)(=O)Nc1cccc(NC(=O)Nc2ccccc2Br)c1 [Example 43]
Response: <5%

* * *

- Assayed System: human OX2R (Homo sapiens)
- Construct: expressed in transfected cells; host or cells: CHO (Chinese hamster ovary) cells, line CHOOX2R, co-expressing NFAT-luciferase
- Method: Agonist activity against OX2R: intracellular calcium (Fura-2AM, FDSS7000) in CHOOX2R cells
- Type: cell-based
- Experimental Conditions: test compound 10 μM; relative to orexin-A as full agonist (100%)
Test Readout: Response (%) OX2R

Prompt: Look at this molecule and give its reported Response (%) OX2R. COc1ccc(C(=O)NCc2cccnc2)cc1S(=O)(=O)Nc1cccc(NC(=O)Nc2cccc(N(C)C)c2)c1
Response: 84

Prompt: // Response (%) OX2R lookup, key: COc1ccc(-c2cccc(C(=O)N(C)C)c2)cc1S(=O)(=O)Nc1cccc(/N=N/c2ccc(N(C)C)cc2CO)c1
Response: 108

Prompt: I would be grateful if you could share the reported Response (%) OX2R for COc1ccc(-c2cccc(C(=O)N(C)C)c2)cc1S(=O)(=O)Nc1cccc(NC(=O)Nc2cccc(N(C)C)c2)n1 .
Response: 147

Prompt: Look up Response (%) OX2R: COc1ccc(-c2cccc(C(=O)N(C)C)c2)cc1S(=O)(=O)Nc1cccc(N2CCCN(c3cccc(N(C)C)c3)C2=O)c1
Response: 75

Prompt: Value lookup for Response (%) OX2R; key = COc1ccc(-c2cccc(C(=O)N(C)C)c2)cc1S(=O)(=O)Nc1cccc(N(C)C(=O)Nc2cccc(N(C)C)c2)c1
Response: 79

(I) COc1ccc(-c2cccc(C(=O)N(C)C)c2)cc1S(=O)(=O)Nc1cccc(N2CCCN(c3ccccc3N(C)C)C2=O)c1
(II) CCCOc1ccc(-c2cccc(C(=O)N(C)C)c2)cc1S(=O)(=O)Nc1cccc(NC(=O)Nc2cccc(N(C)C)c2)c1
(III) COc1ccc(C(=O)N(C)C)cc1S(=O)(=O)Nc1cccc(NC(=O)Nc2ccccc2N(C)C)c1
Prompt: Hey, can you sort those molecules up there by Response (%) OX2R, smallest first? Your task in answering is to list the labels in the requested order.
Response: III, I, II
(III: 28%, I: 72%, II: 103%)
